Molecular target: DLK (Homo sapiens, UniProt Q12852)
Construct: 10 nM DLK, catalytic domain, Carna Biosiences; purchased Carna Biosciences ('Carna Biosiences' [sic])
Sequence (Q12852 125-366 limits assumed): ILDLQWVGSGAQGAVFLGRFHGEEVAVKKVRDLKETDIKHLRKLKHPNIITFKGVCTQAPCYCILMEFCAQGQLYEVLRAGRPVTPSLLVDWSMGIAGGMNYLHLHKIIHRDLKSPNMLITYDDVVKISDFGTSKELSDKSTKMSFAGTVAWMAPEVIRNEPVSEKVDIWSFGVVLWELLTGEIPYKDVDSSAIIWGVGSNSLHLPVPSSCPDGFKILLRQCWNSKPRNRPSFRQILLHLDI
Assay: DLK biochemical assay (TR-FRET, MKK7 phosphorylation)
pIC50: −log10 of the molar value.
assay_readout: pIC50

Look over these answered cases.
1. CC(C)C(c1ccc(C(F)(F)F)nc1)n1cc(-c2cc(-c3ccc(C4CC(F)(F)C4)nc3)n3nc(N)nc3c2)cn1 (single isomer, unassigned) [II-74] :: 6.29
2. COc1cc([C@H](C(C)C)n2cc(-c3cc(-c4cnn(CC(F)(F)F)c4)n4nc(N)nc4c3)cn2)ccn1 :: 8.77
3. CC(C)[C@@H](c1ccc(C(F)(F)F)nc1)n1cc(-c2cc(-c3cnn(CC(F)(F)F)c3)n3nc(N)nc3c2)cn1 :: 8.52
4. CCC(c1ccc(C(F)F)nc1)n1cc(-c2cc(-c3ccc(C4CC4)nc3)n3nc(N)nc3c2)cn1 (single isomer, unassigned) [II-69] :: 8.32

I: Nc1nc2cc(-c3cnn(C(c4ccc(C(F)(F)F)nc4)C4CCOCC4)c3)cc(-c3cn(CC(F)(F)F)c(=O)cn3)n2n1 (single isomer, unassigned) [II-196]
II: Nc1nc2c(-c3ccn(CC(F)F)c(=O)c3)cc(-c3cnn(C(c4ccc(C(F)(F)F)nc4)C4CCOCC4)c3)cn2n1 (single isomer, unassigned) [II-174]
Query string: Would you let me know which has the greater pIC50 value, I or II ? Lab note: record the label of whichever item you select.
Result string: II

Hello, the source for this data is patent US20230086702A1, in case you need it.
